Listed next: entries and their corresponding pIC50.
# Target or system: C3aR (Homo sapiens, UniProt Q16581)
# Construct: peripheral blood mononuclear cells were isolated from buffy coat (obtained from Australian Red Cross Blood Service, Kelvin Grove); endogenous in cells; host or cells: primary human monocyte-derived macrophages (HMDM) differentiated from CD14+ monocytes of donor buffy coat
# Sequence (Q16581 whole entry): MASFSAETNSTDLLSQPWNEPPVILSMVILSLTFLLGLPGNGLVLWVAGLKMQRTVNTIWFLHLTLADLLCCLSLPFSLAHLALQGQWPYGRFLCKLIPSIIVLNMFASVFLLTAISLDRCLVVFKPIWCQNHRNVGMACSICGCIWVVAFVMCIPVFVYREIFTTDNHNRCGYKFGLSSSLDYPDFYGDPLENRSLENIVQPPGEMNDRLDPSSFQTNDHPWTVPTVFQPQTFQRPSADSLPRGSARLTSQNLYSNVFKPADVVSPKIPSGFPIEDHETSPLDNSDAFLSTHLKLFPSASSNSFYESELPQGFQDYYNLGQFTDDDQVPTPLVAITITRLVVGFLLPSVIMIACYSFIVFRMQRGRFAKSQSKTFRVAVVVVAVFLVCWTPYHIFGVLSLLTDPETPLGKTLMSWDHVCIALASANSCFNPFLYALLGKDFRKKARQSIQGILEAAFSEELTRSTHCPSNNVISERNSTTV
# Test details: Calcium mobilization assay in HMDM (agonist/antagonist activity)
# Format: cell-based
# Assay context: Table 10; HMDM; read-out: Antagonist Activity Ca^2+ IC50
// scale note: pIC50 = -log10(conc_M); give the bare number

Worked set:
Q: Give the value of pIC50 reported for the following: Cc1oc(C(c2ccccc2)c2ccccc2)nc1C(=O)N[C@@H](CCCNC(=N)N)C(=O)O [Compound 61]
Result: 7.52

Q: Give the value of pIC50 reported for the following: N=C(N)NCCC[C@H](NC(=O)c1nnc(C(c2ccccc2)c2ccccc2)o1)C(=O)O [Compound 69]
Result: 4.62

Q: Give the value of pIC50 reported for the following: N=C(N)NCCC[C@H](NC(=O)c1nc(C(c2ccccc2)c2ccccc2)[nH]c1-c1ccccc1)C(=O)O [Compound 62]
Result: 6.22

Q: Give the value of pIC50 reported for the following: N=C(N)NCCC[C@H](NC(=O)c1nc(C(c2ccccc2)c2ccccc2)no1)C(=O)O [Compound 67]
Result: 5.89

Q: Give the value of pIC50 reported for the following: N=C(N)NCCC[C@H](NC(=O)c1coc(C(c2ccccc2)c2ccccc2)n1)C(=O)O [Compound 56]
Result: 7.70

Q: Give the value of pIC50 reported for the following: Cc1nc(C(c2ccccc2)c2ccccc2)oc1C(=O)N[C@@H](CCCNC(=N)N)C(=O)O [Compound 58]
Result: 5.54

Q: Give the value of pIC50 reported for the following: N=C(N)NCCC[C@H](NC(=O)c1noc(C(c2ccccc2)c2ccccc2)n1)C(=O)O [Compound 68]
Result: 5.92

Let us move to another entry and its pIC50.
Q: Give the value of pIC50 reported for the following: NC(N)=NCCC[C@H](NC(=O)COCC(c1ccccc1)c1ccccc1)C(=O)O [SB290157, reference compound]
Result: 5.89

====

# Target or system: C3a receptor (C3aR) (Homo sapiens, UniProt Q16581)
# Construct: peripheral blood mononuclear cells were isolated from buffy coat (obtained from Australian Red Cross Blood Service, Kelvin Grove); endogenous in cells; host or cells: primary human monocyte-derived macrophages (HMDM) differentiated from CD14+ monocytes of donor buffy coat
# Sequence (Q16581 whole entry): as above
# Test details: Competitive binding with [^125I]-C3a in HMDM
# Assay context: Table 6; competitive binding with [^125I]-C3a, HMDM; read-out: pIC50 ± SEM (converted)
Threshold 40 nM: IC50 strictly smaller gives 1, otherwise -1.

Worked set:
Q: Hello, I'm reviewing records and need to know if IC50 of Cc1nc(C(c2ccccc2)c2ccccc2)sc1C(=O)N[C@@H](CCCNC(=N)N)C(=O)O is below 40 nM. Could you check?
Result: -1

Q: Hello, I'm reviewing records and need to know if IC50 of CC[C@H](C)[C@H](NC(=O)OC(C)(C)C)c1nc(C(=O)N[C@@H](CCCNC(=N)N)C(=O)O)c(C)o1 is below 40 nM. Could you check?
Result: 1

New cases:
Q: Hello, I'm reviewing records and need to know if IC50 of N=C(N)NCCC[C@H](NC(=O)c1coc(C(c2ccccc2)c2ccccc2)n1)C(=O)O is below 40 nM. Could you check?
Result: 1

Q: Hello, I'm reviewing records and need to know if IC50 of Cc1nc(C(c2ccccc2)c2ccccc2)oc1C(=O)N[C@@H](CCCNC(=N)N)C(=O)O is below 40 nM. Could you check?
Result: -1

Q: Hello, I'm reviewing records and need to know if IC50 of CC(C)C[C@H](NC(=O)OC(C)(C)C)c1nc(C(=O)NC(CCCNC(=N)N)C(=O)O)co1 (some centres unmarked) is below 40 nM. Could you check?
Result: 1
